The measured values listed here are drawn from the supplement of paper PMC4466140.

# Target Of Assay: CaSla1-D1-D2
# Protocol Description: SPOT peptide array binding signal intensity (averaged, normalized) (arbitrary units (background-subtracted, floor 0; scale differs between SH3 domains)); higher = stronger binding of the SH3 domain to the peptide
Some binders, each annotated with its measured SPOT peptide array binding signal intensity.

Use the examples below as a reference point.
Binder: NPNRRAPRRPLSTQH
Result: 622
//
Binder: PSPSSSPPPIPKTAN
Result: 8.5
//
Binder: PPPPPPPPPPPLPQS
Result: ≤ 0
//
Binder: KNPRRQLQIPRQQPS
Result: 148
//
Binder: NSMRPPLLIPAATTK
Result: 244

Provide SPOT peptide array binding signal intensity value for the following binder: `RSVKRPRRAPRPVVS`
990

Provide SPOT peptide array binding signal intensity value for the following binder: `MARRRLPDRPPNGIG`
1100
